Target: JAK3 (Homo sapiens)
Construct: made in house; host or cells: SF9 insect cells (baculovirus)
Sequence (P52333 783-1124): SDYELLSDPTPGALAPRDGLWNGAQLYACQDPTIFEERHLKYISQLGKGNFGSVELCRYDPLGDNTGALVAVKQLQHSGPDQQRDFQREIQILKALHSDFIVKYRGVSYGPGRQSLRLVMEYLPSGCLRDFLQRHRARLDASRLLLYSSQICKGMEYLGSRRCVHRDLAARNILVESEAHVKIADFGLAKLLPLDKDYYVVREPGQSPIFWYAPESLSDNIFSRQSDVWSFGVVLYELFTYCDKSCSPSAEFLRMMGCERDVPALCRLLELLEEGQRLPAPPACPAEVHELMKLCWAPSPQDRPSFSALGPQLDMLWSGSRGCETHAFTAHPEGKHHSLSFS
Experiment: JAK3 inhibition (Table 4)
Assay type: biochemical
Details: read-out: JAK3 Ki
pKi for assorted compounds
// pKi is dimensionless: -log10 of concentration (M)

| compound | pKi |
| --- | --- |
| O=C([C@H]1CC[C@H](n2cnc3cnc4[nH]ccc4c32)CC1)N1CCOCC1 [Example 166] | 6.59 |

Fill in pKi for CC(C)(C)OC(=O)N1CCC[C@H](CN[C@H]2CC[C@H](n3cnc4cnc5[nH]ccc5c43)CC2)C1 [Example 565] tested with JAK3 (Homo sapiens).
5.98

Jot down pKi (JAK3 (Homo sapiens)) of Cc1nc2cnc3[nH]ccc3c2n1C1CCC(NC(=O)N(C)CC(F)(F)F)C1 (racemic) [Example 736] .
9.10

// fetch pKi; item: C[C@H](O)c1nc2cnc3[nH]ccc3c2n1C1CCCOC1 (single isomer, unassigned) [Example 461] ; system: JAK3 (Homo sapiens)
5.93

Report pKi from JAK3 (Homo sapiens) testing of O=C(Cc1nc2cnc3[nH]ccc3c2n1C1CCCOC1)N1CCCC1 (racemic) [Example 968]
6.44

Answer briefly: pKi recorded on JAK3 (Homo sapiens) for CC(=O)NCc1nc2cnc3[nH]ccc3c2n1C1CCCCC1 [Example 918]
7.22

State measured pKi of the compound FC(F)(F)CNC1CCC(n2cnc3cnc4[nH]ccc4c32)C1 (racemic) [Example 717] with JAK3 (Homo sapiens).
7.22

For JAK3 (Homo sapiens), give pKi of the listed compound: C[C@@H](O)c1nc2cnc3[nH]ccc3c2n1C1CCN(Cc2nccn2C)CC1 [Example 826]
6.68

Report pKi under test system JAK3 (Homo sapiens) for N#CCC(=O)N1CC[C@@H](n2cnc3cnc4[nH]ccc4c32)C1 [Example 37] .
6.84

Jot down pKi (JAK3 (Homo sapiens)) of CCC(COC)n1c(C)nc2cnc3[nH]ccc3c21 (racemic) [Example 415] .
6.96

Fetch value of pKi on JAK3 (Homo sapiens) for O=C(N[C@H]1CC[C@H](n2cnc3cnc4[nH]ccc4c32)CC1)C1CC1 [Example 572] .
6.70

Output reported pKi of the compound CC(C)(CF)N1CCC(n2c(CNS(C)(=O)=O)nc3cnc4[nH]ccc4c32)CC1 [Example 693] on JAK3 (Homo sapiens).
6.52

Specify the recorded pKi for Cc1nc2cnc3[nH]ccc3c2n1C1CCN(Cc2ccccc2)CC1(F)F (racemic) [Example 428] , system: JAK3 (Homo sapiens).
8.79

Fill in: pKi on JAK3 (Homo sapiens), entry CC(=O)NCCc1nc2cnc3[nH]ccc3c2n1C1CCCCC1 [Example 677]
7.48

Report value: pKi, system: JAK3 (Homo sapiens), compound: CS(=O)(=O)CC(=O)N1CCC[C@@H](n2cnc3cnc4[nH]ccc4c32)C1 [Example 79]
7.11

Report measured pKi on JAK3 (Homo sapiens); entry: O=S(=O)(c1ccccc1)N1CC[C@@H](n2cnc3cnc4[nH]ccc4c32)C1 [Example 432]
5.89

Name the recorded pKi of N#Cc1ccc(CC(=O)N2CC[C@@H](n3cnc4cnc5[nH]ccc5c43)C2)cc1 [Example 431] , assay system JAK3 (Homo sapiens).
5.45

----------
Target: JAK1 (Homo sapiens)
Construct: made in house; host or cells: SF9 insect cells (baculovirus)
Assay: JAK1 inhibition (Table 4)
Assay type: biochemical
Details: read-out: JAK1 Ki
Classification by Ki | ranges: low (below 20 nM), medium (20 nM to below 60 nM), high (60 nM or more)

Solved entries:
| compound | experimental_system | qualitative_label |
| --- | --- | --- |
| N#CCCN1CCC(n2c(CNC(=O)c3cccc(F)c3)nc3cnc4[nH]ccc4c32)CC1 | JAK1 (Homo sapiens) | low |
| c1cc2c(ncc3nnn(C4CCCOC4)c32)[nH]1 (single isomer, unassigned) [Example 460] | JAK1 (Homo sapiens) | low |
| COCCNC1CCC(n2c(C)nc3cnc4[nH]ccc4c32)C1 (racemic) | JAK1 (Homo sapiens) | medium |
| C[C@@H](O)c1nc2cnc3[nH]ccc3c2n1C1CCCC1 | JAK1 (Homo sapiens) | low |
| CC(O)c1nc2cnc3[nH]ccc3c2n1C1CC2CCC1O2 (centres unmarked) [Example 938] | JAK1 (Homo sapiens) | high |

Please look at the following compound next.
Which category does the recorded Ki put CC1CC(n2cnc3cnc4[nH]ccc4c32)CCN1Cc1ccccc1 (racemic) [Example 127] in?
low

----------
Molecular target: TYK2 (Homo sapiens)
Sequence (P29597 873-1187): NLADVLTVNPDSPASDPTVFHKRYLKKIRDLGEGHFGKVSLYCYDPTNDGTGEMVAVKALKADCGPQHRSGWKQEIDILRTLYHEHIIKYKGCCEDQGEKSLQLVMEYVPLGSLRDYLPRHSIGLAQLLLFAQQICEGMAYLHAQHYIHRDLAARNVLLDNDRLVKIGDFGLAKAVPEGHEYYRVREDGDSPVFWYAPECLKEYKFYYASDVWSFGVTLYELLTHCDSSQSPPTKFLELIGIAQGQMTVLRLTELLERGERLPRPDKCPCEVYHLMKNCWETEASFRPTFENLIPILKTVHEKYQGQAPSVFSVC
Structures can show the parent of a compound that is named as a salt.
# if measured Ki < 0.07 µM: Condition met  # else: Condition not met

Previously resolved entries follow.
| molecule | qualitative_label |
| --- | --- |
| FC1CNCCC1n1cnc2cnc3[nH]ccc3c21 (racemic) [Example 520] | Condition not met |
| CC1(n2nnc3cnc4[nH]ccc4c32)CCN(S(=O)(=O)c2cccnc2)CC1 [Example 584] | Condition not met |
| N#Cc1ccc(CN2CCC[C@@H](n3cnc4cnc5[nH]ccc5c43)C2)cc1 [Example 40] | Condition not met |
| CC1CN(Cc2ccccc2)CCC1n1cnc2cnc3[nH]ccc3c21 (racemic) [Example 150, dihydrochloride] | Condition not met |
| N#CCCN1CCC(n2c(CNC(=O)c3ccccc3F)nc3cnc4[nH]ccc4c32)CC1 [Example 501] | Condition met |

Hello, is Ki of the following molecule strictly smaller than 0.07 µM? Cn1cc(CCc2nc3cnc4[nH]ccc4c3n2C2CCN(CCC#N)CC2)cn1 [Example 412]
Condition not met

Does the reported Ki of CN(C(=O)Cc1nc2cnc3[nH]ccc3c2n1C1CCN(Cc2ccccc2)CC1)C1CCCC1 [Example 101] stay below 0.07 µM?
Condition not met

Take the molecule CS(=O)(=O)NCCc1nc2cnc3[nH]ccc3c2n1C1CC2CCC1C2 (centres unmarked) [Example 694] and say whether its Ki is less than 0.07 µM.
Condition met

----------
Biological target: JAK2 (Homo sapiens)
Construct: made in house; host or cells: SF9 insect cells (baculovirus)
Sequence (O60674 812-1132): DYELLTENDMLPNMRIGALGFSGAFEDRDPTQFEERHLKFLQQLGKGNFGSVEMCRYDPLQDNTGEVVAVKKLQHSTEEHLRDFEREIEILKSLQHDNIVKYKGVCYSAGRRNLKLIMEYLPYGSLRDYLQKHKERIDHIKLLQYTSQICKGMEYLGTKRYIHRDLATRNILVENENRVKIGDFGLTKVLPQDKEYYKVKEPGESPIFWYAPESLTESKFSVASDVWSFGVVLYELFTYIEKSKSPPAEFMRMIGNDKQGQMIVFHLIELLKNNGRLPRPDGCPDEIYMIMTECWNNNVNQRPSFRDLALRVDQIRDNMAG
Assay: JAK2 inhibition (Table 4)
Format: biochemical
Conditions: read-out: JAK2 Ki
quantity_measured: Ki (nM)
Just the number in nM, nothing appended.

For orientation, consider the following solved cases.
| compound | recorded_measurement |
| --- | --- |
| CC(C)(C)OC(=O)N1CCC(N[C@H]2CC[C@H](n3cnc4cnc5[nH]ccc5c43)CC2)CC1 | 60.9 |
| O=S(=O)(Cc1ccccc1)N1CCC(n2cnc3cnc4[nH]ccc4c32)CC1 | 8.22 |
| C[C@@H](O)c1nc2cnc3[nH]ccc3c2n1[C@@H]1CCCN(C(=O)CC#N)C1 | 66.3 |

// fetch Ki; item: Cc1nc2cnc3[nH]ccc3c2n1C1CCOC(C)(C)C1 (centres unmarked) ; system: JAK2 (Homo sapiens)
22.3

Jot down Ki (JAK2 (Homo sapiens)) of `CC1(n2cnc3cnc4[nH]ccc4c32)CCN(Cc2cncs2)CC1` .
33.7

Would you please give the reported Ki of `c1ccc(CN2CCC(n3c(C4CCC4)nc4cnc5[nH]ccc5c43)CC2)cc1` with JAK2 (Homo sapiens)?
21.6

Write down measured Ki (JAK2 (Homo sapiens)) for this compound. `N#Cc1cccc(CN[C@H]2CC[C@H](n3cnc4cnc5[nH]ccc5c43)CC2)c1`
11.2

Recall the reported Ki of N#CCC(=O)NC1CCC(n2cnc3cnc4[nH]ccc4c32)C1 (racemic) when tested on JAK2 (Homo sapiens).
4.99

Write down measured Ki (JAK2 (Homo sapiens)) for this compound. O=C(NC1CCC(n2nnc3cnc4[nH]ccc4c32)C1)OCC(F)(F)F (racemic)
8.15

Give measured Ki for `N#CCCN1CCC(n2c(CNC(=O)c3ccccc3F)nc3cnc4[nH]ccc4c32)CC1` (JAK2 (Homo sapiens)).
12

State the measured Ki (JAK2 (Homo sapiens)) of OC1(C2CC2)CCC(n2cnc3cnc4[nH]ccc4c32)CC1 (centres unmarked) [Example 996]
3.85

Write Ki of `CS(=O)(=O)NCCc1nc2cnc3[nH]ccc3c2n1C1CCN(CCC#N)CC1` ; system used: JAK2 (Homo sapiens)
12

Enter Ki (test system JAK2 (Homo sapiens)) for `COCCOC(=O)N[C@H]1CC[C@H](n2cnc3cnc4[nH]ccc4c32)CC1`
28.5

// fetch Ki for FC1(F)CN(Cc2ccccc2)CCC1n1cnc2cnc3[nH]ccc3c21 (centres unmarked) ; system: JAK2 (Homo sapiens)
1.11

# return Ki for `O=C(N[C@H]1CC[C@H](n2cnc3cnc4[nH]ccc4c32)CC1)c1ccncc1` , test system: JAK2 (Homo sapiens)
10

Fetch value of Ki on JAK2 (Homo sapiens) for CN(CCO)C(=O)Cc1nc2cnc3[nH]ccc3c2n1C1CCCOC1 (racemic) .
1090

----------
Target: JAK1 (Homo sapiens, UniProt P23458)
Construct: made in house; host or cells: SF9 insect cells (baculovirus)
Sequence (P23458 852-1154): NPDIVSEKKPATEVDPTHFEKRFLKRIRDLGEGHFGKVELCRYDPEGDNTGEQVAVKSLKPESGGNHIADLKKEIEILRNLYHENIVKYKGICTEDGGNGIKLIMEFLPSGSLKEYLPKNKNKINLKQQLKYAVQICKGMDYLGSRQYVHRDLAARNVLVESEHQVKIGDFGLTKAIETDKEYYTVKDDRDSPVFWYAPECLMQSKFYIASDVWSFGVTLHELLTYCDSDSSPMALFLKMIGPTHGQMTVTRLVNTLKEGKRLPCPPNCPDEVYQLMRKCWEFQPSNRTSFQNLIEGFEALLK
Test: JAK1 inhibition (Table 4)
Assay type: biochemical
Details: read-out: JAK1 Ki
Label 1.0 when Ki is strictly below 6 nM; at or above that, label 0.0.

| compound | qualitative_label |
| --- | --- |
| COCCN(C)C(=O)NC1CCC(n2cnc3cnc4[nH]ccc4c32)C1 (racemic) [Example 739] | 0.0 |

Now consider the entry below.
Quick check: Ki of CN1CC(c2nc3cnc4[nH]ccc4c3n2C2CCN(CCC#N)CC2)CC1=O (racemic) [Example 384] under 6 nM?
0.0
